- Test system: SK-MEL-5 melanoma
- MEASUREMENT DESCRIPTION: NCI tumour cell line growth inhibition, 48 h
Kindly return 1 if reported TGI is no lower than 30 µM; return 0 if it is lower.

>  <STRUCTURE SMILES>
O=c1cc[nH]c(=O)[nH]1

>  <ASSAYED TARGET>
SK-MEL-5 melanoma

>  <LABEL>
1

$$$$
>  <STRUCTURE SMILES>
CC(=O)N=C1N(/C=C2\C(=O)Oc3ccccc3C2=O)C(=O)/C(=C/c2cccc(Cl)c2Cl)N1C

>  <ASSAYED TARGET>
SK-MEL-5 melanoma

>  <LABEL>
1

$$$$
>  <STRUCTURE SMILES>
CNCc1ccccc1-c1csc([C@@H](C)Nc2nc(C)nc3cc(OC)c(OC)cc23)c1

>  <ASSAYED TARGET>
SK-MEL-5 melanoma

>  <LABEL>
0

$$$$

Now, please, on to the next compound.
Does `Cn1c(I)c(C#CCO[Si](C)(C)C(C)(C)C)c(=O)[nH]c1=O` have a reported TGI of at least 30 µM? 1

====

- System: HCC-2998 colon
- MEASUREMENT DESCRIPTION: NCI tumour cell line growth inhibition, 48 h
METRIC NAME: GI50

These recorded examples may help you get a feel for the data.
>  <COMPOUND>
COC(=O)c1ccc2c(c1)nc(NC(=O)c1ccccc1)n2CCCc1ccccc1

>  <METRIC NAME>
GI50

>  <RESULT>
30.6 µM

$$$$
>  <COMPOUND>
COc1ccc(Sc2[nH]c(C(C)=O)c3ccccc23)cc1

>  <METRIC NAME>
GI50

>  <RESULT>
11.9 µM

$$$$
>  <COMPOUND>
O=C(Nc1ccc(Nc2ccncc2)cc1)c1ccc([N+](=O)[O-])cc1

>  <METRIC NAME>
GI50

>  <RESULT>
2.77 µM

$$$$
>  <COMPOUND>
Cc1cc(C)c2c(n1)sc1c(Nc3ccc(Cl)cc3)ncnc12

>  <METRIC NAME>
GI50

>  <RESULT>
7.4 µM

$$$$
>  <COMPOUND>
COc1cc(C(=O)N2CCN(C=O)C2=S)cc(OC)c1OC

>  <METRIC NAME>
GI50

>  <RESULT>
19.8 µM

$$$$

Name the recorded GI50 of the compound listed here: `CCOC(=O)C1=CN(C)C=C(C(=O)OCC)C1c1cc(Br)c(OCC)c(OC)c1` > 100 µM

Name the recorded GI50 of the compound listed here: `COC(=O)COc1ccccc1/C=C1\N=C(c2ccccc2)N(c2cc(C(F)(F)F)ccc2Cl)C1=O` 36.3 µM

Name the recorded GI50 of the compound listed here: `C#CCOc1cccc(-c2ncc3cc(NC(=O)CCl)ccc3n2)c1` 1.91 µM

Name the recorded GI50 of the compound listed here: `C/C=C(\C)C(=O)O[C@H]1C=CC(=O)O[C@H]1CCC(=O)[C@H](C)O` 17.1 µM

Name the recorded GI50 of the compound listed here: CSC1=Nc2c(c(C)c(C)n2COC(CO)CO)C2=NC(=O)C(C)N12 (stereo not given) > 100 µM

====

- System: KM12 colon
- MEASUREMENT DESCRIPTION: NCI tumour cell line growth inhibition, 48 h; in the data active = GI50 below about 0.43 µM; inactive = the rest
Select the correct class. Options are Yes (active), No (inactive) and nothing else.

The examples below pair each entry with its known result.
>  <MOLECULE>
N#Cc1c(N)nc(N2CCOCC2)c(C#N)c1-c1ccncc1

>  <LABEL>
No

$$$$
>  <MOLECULE>
Nc1nn2cc(F)cnc2c1C(=O)Nc1cncc(F)c1N1CCC(C(=O)N2CCN(C3COC3)CC2)CC1

>  <LABEL>
Yes

$$$$

In this assay, the call recorded for `COC(=O)COc1ccccc1/C=C1\N=C(c2ccccc2)N(c2cc(C(F)(F)F)ccc2Cl)C1=O` was what? No

In this assay, the call recorded for `COc1ccc(OC)c2c1[nH]c(=O)c1c3ccccc3cn21` was what? No

In this assay, the call recorded for `C#CCOc1cccc(-c2ncc3cc(NC(=O)CCl)ccc3n2)c1` was what? No

In this assay, the call recorded for `CC1(C)N=C(N)N=C(N)N1c1ccc(CCCCc2ccc(Cl)cc2S(=O)(=O)F)c(Cl)c1` was what? No

In this assay, the call recorded for `CN1CCN(C2CCN(C(=O)Nc3cc(Oc4ccc(NC(=O)C5(C(=O)Nc6ccc(F)cc6)CC5)c(F)c4)ccn3)CC2)CC1` was what? Yes

In this assay, the call recorded for `COc1cccc(F)c1C(=O)c1cnc(NC2CCN(S(C)(=O)=O)CC2)nc1N` was what? No

In this assay, the call recorded for C[N+](C)(C)CC1CCCc2ccccc2C1=O (stereo not drawn) was what? No

In this assay, the call recorded for `COc1cc(C(=O)N2CCN(C=O)C2=S)cc(OC)c1OC` was what? No

In this assay, the call recorded for `c1ccc(-c2nnc(-c3ccccn3)s2)nc1` was what? No

In this assay, the call recorded for `Nc1ccc([N+](=O)[O-])cc1N=C/C=C/c1ccccc1` was what? No

In this assay, the call recorded for `CCOC(=O)C1=CN(C)C=C(C(=O)OCC)C1c1cc(Br)c(OCC)c(OC)c1` was what? No

====

Form field: TGI (one value per entry).
- System: UO-31 renal
- MEASUREMENT DESCRIPTION: NCI tumour cell line growth inhibition, 48 h

These recorded examples may help you get a feel for the data.
>  <COMPOUND>
CCOC(=O)C1=CN(C)C=C(C(=O)OCC)C1c1cc(Br)c(OCC)c(OC)c1

>  <RESULT>
> 100 µM

$$$$
>  <COMPOUND>
CCOC(=O)Nc1[nH]cc(-c2ccccc2)c1C#N

>  <RESULT>
> 100 µM

$$$$
>  <COMPOUND>
Nc1ccc([N+](=O)[O-])cc1N=C/C=C/c1ccccc1

>  <RESULT>
71.4 µM

$$$$

Name the recorded TGI of the compound listed here: `O=C(/C=C/c1ccccc1)Oc1cccc(O)c1` > 100 µM

Name the recorded TGI of the compound listed here: `COc1cc(C(=O)N2CCN(C=O)C2=S)cc(OC)c1OC` 3.36 µM

Name the recorded TGI of the compound listed here: `CC(C)(C)OC(=O)N(CCCCN(CCCNC(=O)C(F)(F)F)C(=O)OC(C)(C)C)CCCNC(=O)C(F)(F)F` > 100 µM

Name the recorded TGI of the compound listed here: `c1ccc(-c2nnc(-c3ccccn3)s2)nc1` > 100 µM

Name the recorded TGI of the compound listed here: `C=CCn1c(N)c(C#N)c(C#N)c1-c1ccccc1` > 100 µM

Name the recorded TGI of the compound listed here: `CSc1nc(=O)n(CCC#N)nc1SC` > 100 µM

Name the recorded TGI of the compound listed here: CC1(C)C(C#N)C1C1=C(N2CCOCC2)[C@]2(C)C(OC(=O)c3ccccc3)CC[C@@H]2C1 (stereo partly specified) > 100 µM

Name the recorded TGI of the compound listed here: CSC1=Nc2c(c(C)c(C)n2COC(CO)CO)C2=NC(=O)C(C)N12 (stereo unspecified) > 100 µM

====

Form field: TGI (one value per entry).
- System: NCI-H23 lung
- MEASUREMENT DESCRIPTION: NCI tumour cell line growth inhibition, 48 h

These recorded examples may help you get a feel for the data.
>  <COMPOUND>
Cc1ccnc2[nH]c(-c3ccc4ccccc4c3)cc(=O)c12

>  <ASSAYED TARGET>
NCI-H23 lung

>  <TGI>
15.3 µM

$$$$
>  <COMPOUND>
CC1(C)COC(C2(C)C(=O)C=C(c3ccccc3)c3ccccc32)=N1 (configuration not stated)

>  <ASSAYED TARGET>
NCI-H23 lung

>  <TGI>
> 100 µM

$$$$
>  <COMPOUND>
CC1(C)CC(=O)C(C=NC(=S)c2ccccc2)=C(O)C1

>  <ASSAYED TARGET>
NCI-H23 lung

>  <TGI>
> 100 µM

$$$$
>  <COMPOUND>
CO/N=C(\C)c1ccc(Nc2nc3ccccc3c3occc23)cc1

>  <ASSAYED TARGET>
NCI-H23 lung

>  <TGI>
28.9 µM

$$$$
>  <COMPOUND>
CC(C)(C)NNC(=O)CCn1[nH]c(=O)c(Cl)c(Cl)c1=O

>  <ASSAYED TARGET>
NCI-H23 lung

>  <TGI>
> 100 µM

$$$$
>  <COMPOUND>
COc1ccc(Sc2[nH]c(C(C)=O)c3ccccc23)cc1

>  <ASSAYED TARGET>
NCI-H23 lung

>  <TGI>
41.5 µM

$$$$
>  <COMPOUND>
Cc1c(O)ccc2c(O)c(NC(=O)c3ccc4c(c3)CCC(C)(C)O4)c(=O)oc12

>  <ASSAYED TARGET>
NCI-H23 lung

>  <TGI>
> 100 µM

$$$$
>  <COMPOUND>
O=C1c2cccc3c2C(=O)c2c(cccc21)OCCOCCOCCOCCO3

>  <ASSAYED TARGET>
NCI-H23 lung

>  <TGI>
> 100 µM

$$$$
>  <COMPOUND>
NC(CCCCCP(=O)(c1ccccc1)C1C=CC=CC1)C(=O)O (configuration not stated)

>  <ASSAYED TARGET>
NCI-H23 lung

>  <TGI>
> 100 µM

$$$$
>  <COMPOUND>
CCN(CC)CCC(CNc1ccnc2cc(Cl)ccc12)c1ccc(Cl)cc1 (configuration not stated)

>  <ASSAYED TARGET>
NCI-H23 lung

>  <TGI>
7.1 µM

$$$$

Name the recorded TGI of the compound listed here: `N#Cc1c(NC(=O)NCc2ccccc2)sc2c1CCCCC2` > 59.8 µM

Name the recorded TGI of the compound listed here: O=C1c2ccccc2C(=O)c2c(NCC(O)CO)ccc(NCC(O)CO)c21 (configuration not stated) > 100 µM

Name the recorded TGI of the compound listed here: N=C(N)C1CN(CCc2c[nH]c3ccccc23)C(=O)NC1=O (configuration not stated) > 100 µM

Name the recorded TGI of the compound listed here: `CCCCC#CC1=C(Br)C(=O)OC1` 9.23 µM

Name the recorded TGI of the compound listed here: `Nc1ccc([N+](=O)[O-])cc1N=C/C=C/c1ccccc1` > 100 µM

Name the recorded TGI of the compound listed here: COC(=O)C1=C(OC(=O)/C(=C/c2ccc(Cl)cc2)c2ccc(Cl)cc2)C(C(=O)OC)[C@@]2(O)[C@@H](C(=O)OC)[C@H](C)C[C@@H]1[C@@H]2C(=O)OC (some centres not stated) > 100 µM
